Listing: inhibition in vivo at 0.3 mg/kg of selected molecules
# System: gastric mucosal damage induced by ethanolic HCl
# assay-text: Gastritis model induced with ethanolic-HCl
# Type: in vivo, SD male rat
# assay-setup: po, 1 h; 0.3 mg/kg p.o., rat
Reply numerically in %, unit not repeated.

(Q) Which inhibition in vivo at 0.3 mg/kg is listed for COc1ccc(-c2cc(=O)c3c(O)c(OC)c(O)cc3o2)cc1OC [5,7-dihydroxy-3',4',6-trimethoxy flavone] ?
(A) 58

(Q) # inhibition in vivo at 0.3 mg/kg lookup, item CNC(=O)COc1cc(OC)c2c(=O)cc(-c3ccc(OC)c(OC)c3)oc2c1
(A) 43

(Q) Look up inhibition in vivo at 0.3 mg/kg: COc1ccc(-c2cc(=O)c3c(OC)c(OC)c(OCC(=O)O)cc3o2)cc1OC
(A) 54

(Q) Given COc1ccc(C2CC(=O)c3c(cc(O)c(OC)c3O)O2)cc1OC (centres unmarked) , state its recorded inhibition in vivo at 0.3 mg/kg.
(A) 5

(Q) Could you share which inhibition in vivo at 0.3 mg/kg value was measured for COc1ccc(C2CC(=O)c3c(OC)cc(O)cc3O2)cc1OC (centres unmarked) [7-hydroxy-3',4'5-trimethoxy flavanone, 7-hydroxy-3',4',5-trimethoxy flavanone] ?
(A) 30
